Tested on: KM12
Experiment: NCI tumour cell line growth inhibition, 48 h
Activity calls are given as the source filed them. Cut-off read from the data, not from the text of the source: active = GI50 up to about 1.1 µM and inactive = higher.
reported.endpoint: GI50

INSERT INTO assay_data (compound, recorded_result) VALUES
  ('COC(=O)[C@@H]1CN(C(C)=O)C(=O)N1C(=O)OCc1ccccc1', '> 100 µM (inactive)'),
  ('COC(=O)c1cc2c(cc1Cl)Sc1nnc(Nc3ccccc3)n1S2(=O)=O', '2.71 µM (inactive)'),
  ('CC(C)C(=O)OCC1CCCN2CCCCC12 (stereo unspecified)', '> 100 µM (inactive)'),
  ('O=c1cc(N2CCN(c3cc(=O)n4ccccc4n3)CC2)oc2ccccc12', '35.4 µM (inactive)'),
  ('O=C1C[C@@H]2[C@@H](CCC23CC3)N1', '> 100 µM (inactive)'),
  ('O=C(O)CCC(N/C=C1/N=C(c2ccccc2)OC1=O)C(=O)O (stereo unspecified)', '> 100 µM (inactive)');

* * *

Observed GI50, system HCT-15.
reported.endpoint: GI50 (µM)

INSERT INTO results (compound, result_modifier, recorded_result) VALUES
  ('CSCCC(NCc1c(O)ccc2c(-c3ccccc3)cc(=O)oc12)C(=O)O (centres undefined)', '>', 100),
  ('Cc1cn(C2CC(O)C(Cn3cc(Cn4nc(Br)c(=O)[nH]c4=O)nn3)O2)c(=O)[nH]c1=O (centres undefined)', '>', 100),
  ('CSC(=S)c1ccc(C(=S)SC)cc1', '>', 100),
  ('O=C(O)c1cccc(OCCO)c1', '>', 100),
  ('C=C1c2nc3ccccc3n2C=C(c2ccc(C)cc2)N1c1ccc(C)cc1', '=', 23.8),
  ('Cc1ccccc1SC(/C=C/NNC1=NN=C(c2ccccc2)C(c2ccccc2)N1)c1ccccc1 (centres undefined)', '=', 34),
  ('CCOC(=O)C12C(C(=O)OC)=C(C)N(NC(=O)Nc3ccccc3)C1(N)N(NC(=O)Nc1ccccc1)C(C)=C2C(=O)OC (centres undefined)', '=', 35.2),
  ('[O-][n+]1onc2c3nn(-c4ccccc4)nc3ccc21', '=', 49.5),
  ('O=C1OC(C2Cc3ccc4c(c3C2=O)CCC4)c2ccccc21 (centres undefined)', '=', 39.1),
  ('c1ccc2/c3[nH]/c(c2c1)=N\c1ccc(cc1)-c1nc2ccc(cc2o1)/N=c1/[nH]/c(c2ccccc12)=N/c1ccc2nc(oc2c1)-c1ccc(cc1)\N=3', '=', 3.1),
  ('CN(C)c1ccc(C(Cc2ccccc2)C2NC(=S)NC2=O)cc1 (centres undefined)', '>', 100),
  ('CCCC(=O)NC(Nc1ccc(F)cc1)(C(F)(F)F)C(F)(F)F', '=', 5.79),
  ('C=CCC1CC(n2cc(C)c(=O)[nH]c2=O)OC1CO[Si](C)(C)C(C)(C)C (centres undefined)', '=', 15.3),
  ('COC(=O)[C@@H]1C=C[C@H](OC2OC(COC(C)=O)C(OC(C)=O)C(OC(C)=O)C2OC(C)=O)n2c(=O)c3ccccc3c(=O)n21 (some centres undefined)', '=', 10.8);

* * *

System: CCRF-CEM
Experiment: NCI tumour cell line growth inhibition, 48 h
Activity calls are given as the source filed them. Rule as the data show it: active = GI50 up to about 1.1 µM and inactive = higher.
Reported GI50 is given for each of the following compounds.
reported.endpoint: GI50

INSERT INTO measurements (mol, target_or_test_system, reported_endpoint, recorded_result) VALUES
  ('Cc1ccc(N2C(=O)CS/C2=C(\C#N)c2nc3ccccc3[nH]2)cc1', 'CCRF-CEM', 'GI50', '> 100 µM (inactive)'),
  ('CN(C)c1cccc(-c2cc(=S)c3cc4c(cc3[nH]2)OCO4)c1', 'CCRF-CEM', 'GI50', '4.26 µM (inactive)'),
  ('Cn1c(=O)c2c(nc3n(Cc4ccccc4)c(=O)c(NCCCBr)cn23)n(C)c1=O', 'CCRF-CEM', 'GI50', '> 100 µM (inactive)'),
  ('Nc1ccc(C(=O)N/C(=C\C=C\c2ccco2)c2nc3c(O)nc(S)nc3[nH]2)cc1', 'CCRF-CEM', 'GI50', '> 100 µM (inactive)'),
  ('S=C=Nc1ccc(CSc2nc3ccccc3[nH]2)cc1', 'CCRF-CEM', 'GI50', '29.5 µM (inactive)'),
  ('COc1ccc(NC(=O)CC(=O)n2nc(-c3ccccc3)c(/N=N/c3ccccc3C(=O)O)c2-c2ccccc2)cc1', 'CCRF-CEM', 'GI50', '> 100 µM (inactive)'),
  ('COc1cccc2c1N[S@](=O)S2', 'CCRF-CEM', 'GI50', '36.7 µM (inactive)'),
  ('Clc1ccccc1/C=c1\nc(-c2ccccc2)n2c1nc1ccccc12', 'CCRF-CEM', 'GI50', '> 100 µM (inactive)'),
  ('O/N=C(\C(=N/O)Nc1ccc(-c2ccc(NC(=N/O)/C(=N\O)c3ccccc3)cc2)cc1)c1ccccc1', 'CCRF-CEM', 'GI50', '18.8 µM (inactive)'),
  ('C=C1c2nc3ccccc3n2C=C(c2ccc(C)cc2)N1c1ccc(C)cc1', 'CCRF-CEM', 'GI50', '33 µM (inactive)');
